Test system: UACC-257 melanoma
Assay: NCI-60 one-dose screen, 48 h
Settings: 10 µM unless noted
About 83,000 compounds went through this panel and 20% of them were active in at least one assay; those are over-represented in the sample as a whole. Calls of active or inactive are those of the source. Rule for the calls: active = growth percent below 10; inactive = the rest.
Possible outcomes: 1 (yes) = active, 0 (no) = inactive

SMILES DATA | LABEL
CCN(CC)CC(=O)Nc1ccc2ncnc(Nc3ccc(Oc4cccc(F)c4)c(Cl)c3)c2c1 | 0 (no)
CC/C(=C(/c1ccc(O)cc1)c1ccc(OCCN2CCCCCC2)cc1)c1ccc(Cl)cc1 | 0 (no)
CN1CCN(c2ccc(/C=C/C(=O)c3ccc(O)cc3)cc2)CC1 | 0 (no)
Cc1[nH]c(C(=O)Nc2nc3ccc(NC(=O)CCN)cc3s2)c(Cl)c1Cl | 0 (no)
Cc1ccc(C(=O)Nc2ccc(CN3CCN(C)CC3)c(C(F)(F)F)c2)cc1C#Cc1cnc(N)cc1C#N | 1 (yes)

---

Test system: HS 578T breast
Assay: NCI-60 one-dose screen, 48 h (100 = growth as untreated, 0 = no growth, -100 = all killed)
Conditions: 10 µM unless noted
About 83,000 compounds went through this panel and 20% of them were active in at least one assay; those are over-represented in the sample as a whole.
REPORTED METRIC: growth (%)

SMILES DATA | VALUE
O=c1oc2c(Br)cc(Br)cc2cc1-c1cc(-c2ccc(-c3cc(-c4cc5cc(Br)cc(Br)c5oc4=O)nc(-c4cc5cc(Br)cc(Br)c5oc4=O)c3)cc2)cc(-c2cc3cc(Br)cc(Br)c3oc2=O)n1 | 90.7
O=C(/C=C/c1ccccc1)c1cccs1 | 100
Cn1c(=O)c2c(nc(Nc3cc(=O)[nH]c(=O)[nH]3)n2Cc2ccccc2)n(C)c1=O | -16.6
CCC(=C(c1ccc(OCCCN(C)C)cc1)c1ccc(OCCCN(C)C)cc1)c1ccc(Cl)cc1 | -77.4

---

Tested on: T-47D breast
Test: NCI-60 one-dose screen, 48 h
Conditions: 10 µM unless noted
Compounds without any hit were thinned out: in the full panel of roughly 83,000, 20% have a hit. Active and inactive are the calls of the source. Rule for the calls: active = growth percent below 10; inactive = the rest.
Outcomes: true (1) for active, false (0) for inactive

COMPOUND | MEASUREMENT TARGET | LABEL
C=C(C)[C@@H]1CC[C@]2(C(=O)O)CC[C@]3(C)[C@H](CC[C@@H]4[C@@]5(C)CCC(N)C(C)(C)[C@@H]5CC[C@]43C)[C@@H]12 (stereo not given in full) | T-47D breast | true (1)
NC1=CC(=O)c2cccnc2C1=O | T-47D breast | true (1)
Fc1ccc(NC(c2ccc(F)cc2)C2CCN(CCCCc3ccccc3)CC2)cc1 (stereo not given) | T-47D breast | false (0)
Cc1n(Cc2ccc3ccccc3c2)c(Cl)c(Cl)[n+]1Cc1ccc2ccccc2c1 | T-47D breast | false (0)
CCOC(=O)C1=C(C)NC(=O)NC1c1c(Cl)n(-c2ccccc2)c2ccccc12 (stereo not given) | T-47D breast | false (0)
CCCNNC(=O)/C=C/c1ccc(CNCCc2c(C)[nH]c3ccccc23)cc1 | T-47D breast | true (1)
CCNC(=O)Nc1ncccc1OCc1ccc(F)cc1 | T-47D breast | false (0)
CN(C)CCCn1c2c(c3ccc(N4CCNCC4)cc3c1=O)C(=O)c1ccccc1-2 | T-47D breast | false (0)
Cc1cc(N2CCCCC2)nc(NCc2cc(Nc3ccnc4cc(Cl)ccc34)ccc2F)n1 | T-47D breast | true (1)
O=C(c1cccc(Br)c1)N1CCN(c2ccnc3cc(Cl)ccc23)CC1 | T-47D breast | false (0)

---

Test system: 786-0 renal
Test: NCI-60 one-dose screen, 48 h
Conditions: 10 µM unless noted
Experimental: Cells are grown in 96 well plates and exposed to the test compound for 48 hours. Compounds are tested at a single concentration, which is 10^-5 M for most compounds. The reported endpoint is percent growth (GI% or GIPRCNT), where numbers from 0 - 100% represent growth inhibition, and numbers from -100% - 0 represent cell death. For example, a value of 40 represents 60% growth inhibition. A value of 0 means no net growth occurred over the course of the experiment. […]
The panel holds about 83,000 compounds, 20% with a hit somewhere; the sample as a whole holds those more often. Active and inactive are the calls of the source. How the source made its calls: active means growth percent below 10; inactive means the rest.
Outcomes: active, inactive

COMPOUND | LABEL
Nc1c(C(=O)Nc2ccncc2)sc2nc3c(cc12)CCCCCCCC3 | active
C=C1CC[C@@H]2[C@](C)(COC(C)=O)[C@H](OC(C)=O)CC[C@@]2(C)[C@@H]1CC(Nc1ccc(S(=O)(=O)Nc2nccs2)cc1)C1=CCOC1=O (some centres undefined) | active
Cc1ccc(Nc2nc(-c3cc(O)c(C)c(C)c3O)cs2)cc1 | inactive
O=C(/C=C/c1cccs1)Nc1ncc(Cc2ccc(Cl)c(Cl)c2)s1 | inactive
CCN1C(=O)N(c2ccccc2)C2NC(=S)N(/N=C/C=C/c3ccccc3)C21 (centres undefined) | inactive
COc1ccc(/C=C2\COc3ccc(O)c(O)c3C2=O)c(OC)c1OC | inactive
COc1ccc(Oc2nc(Nc3ccc(N4CCOCC4)cc3)ncc2NC(=O)c2cccc(C(F)(F)F)c2)cc1 | inactive
N#C/C(=N\Nc1ccc(Cl)cc1)C(=O)Nc1cc(-c2ccccc2)nn1-c1ccccc1 | inactive
CS(=O)(=O)Nc1cc(-c2ccc3ncnc(Nc4ccc(F)c(Cl)c4)c3c2)cnc1Cl | active

---

The entries below come with measured growth values attached.
Test system: SK-MEL-5 melanoma
Assay: NCI-60 one-dose screen, 48 h (100 = growth as untreated, 0 = no growth, -100 = all killed)
Conditions: 10 µM unless noted
Compounds without any hit were thinned out: in the full panel of roughly 83,000, 20% have a hit.
REPORTED METRIC: growth (%)

COMPOUND | RESULT UNITS | VALUE
O=C1C=C(Nc2ccccc2)c2ncccc2C1=O | % | -97.8
Nc1ccccc1SC(CC(=O)c1ccccc1)c1ccc([N+](=O)[O-])cc1 (stereo not given) | % | 105
COc1ccc(/C=N\Nc2nc(SCC(C)C)nc(-c3ccc(OC)cc3)c2C#N)cc1 | % | 77.2
COC1=CC(=O)C(OC)=C(O)C1=O | % | 97.8
CC(=O)N1N=C(c2ccc(Nc3nc(Nc4ccc(F)cc4)nc(Nc4ccc(Cl)cc4)n3)cc2)CC1c1ccc(N(C)C)cc1 (stereo not given) | % | 32.4
COc1ccc(NC(=O)Nc2ccccc2CNc2nc(Nc3ccc(OCCN4CCCC4)cc3)ncc2Cl)cc1 | % | -40.6
Fc1ccc(NC(c2ccc(F)cc2)C2CCN(CCCCc3ccccc3)CC2)cc1 (stereo not given) | % | -3.5
COCCOc1cc2ncnc(N3CCN(S(=O)(=O)c4ccccc4Cl)CC3)c2cc1OCCOC | % | 58.8
c1ccc(-c2cc(-c3cc(-c4ccccc4)on3)no2)cc1 | % | 101
Nc1ncc(-c2ccc3ncnc(N4CCc5ccc(Cl)cc54)c3c2)cc1C(F)(F)F | % | 22.6

---

System: UO-31 renal
Experiment: NCI-60 one-dose screen, 48 h
Conditions: 10 µM unless noted
This is part of a sample that, as a whole, favours compounds with a hit. Of some 83,000 tested, about 20% had one in any assay. Activity calls are given as the source filed them. The calls were made as follows: active = growth percent below 10; inactive = the rest.
Possible outcomes: y (active), n (inactive)

COMPOUND | LABEL
C=C1C(=O)O[C@H]2[C@H]1CC/C(COC(=O)NCc1ccc(Cn3c(=O)sn(CCCI)c3=O)cc1)=C\CC[C@@]1(C)O[C@@H]21 | y
COC(=O)/C=C1/SC(=Nc2ccc([N+](=O)[O-])cc2)N(CCc2c[nH]c3ccccc23)C1=O | n
Cn1c(=O)c2c(nc(Nc3cc(=O)[nH]c(=O)[nH]3)n2Cc2ccccc2)n(C)c1=O | n
Nc1c(C(=O)Nc2ccncc2)sc2nc3c(cc12)CCCCCCCC3 | y
COc1ccc(Cn2cc(C(=O)Nc3cccnc3Nc3ccccc3)nn2)cc1 | n
O=C1C=C(Nc2ccccc2)c2ncccc2C1=O | y
CCN1C(=S)N(CC)C2C1NC(=S)N2/N=C/C=C/c1ccccc1 (stereo not given) | n
Cc1ccc(-c2nc(C#N)c(S(=O)(=O)N(C)C)o2)cc1 | n
COC(=O)c1nc(-c2ccccc2)oc1S(=O)(=O)N(C)CCO | n
COc1ccc(S(=O)(=O)Nc2cc(Sc3cccc4cccnc34)c(O)c3ccccc23)cc1 | n

---

Test system: IGROV1 ovarian
Assay: NCI-60 one-dose screen, 48 h (100 = growth as untreated, 0 = no growth, -100 = all killed)
Conditions: 10 µM unless noted
This is part of a sample that, as a whole, favours compounds with a hit. Of some 83,000 tested, about 20% had one in any assay.
Response key: Met means growth >= 10%; Not met means growth < 10%.

COMPOUND | LABEL
CCCCCCNC(=O)Oc1ccc(/C(=C(/CC)Cc2ccccc2)c2ccc(OCCCN(C)C)cc2)cc1 | Met
CCN1C(=O)N(c2ccccc2)C2NC(=S)N(/N=C/C=C/c3ccccc3)C21 (stereo unspecified) | Met
O=C1/C(=C/c2ccccc2)CN(C(=O)C(Cl)Cl)C/C1=C\c1ccccc1 | Not met
COc1cc(/C=C2\C(=O)N(CCCCn3c4ccccc4c(=O)c4ccccc43)c3ccccc32)cc(OC)c1O | Met
O=C1OCC2=C1C(c1cccc([N+](=O)[O-])c1)c1cc3c(cc1N2CCO)CCC3 (stereo unspecified) | Met
Cc1ccc(C(=O)N(CCCN)[C@@H](c2nc3cc(Cl)ccc3c(=O)n2Cc2ccccc2)C(C)C)cc1 | Not met
C/C(=C(\c1ccc(OCCN2CCOCC2)cc1)c1ccc(OC(=O)C2CCCCC2)cc1)c1ccc(Cl)cc1 | Met
COc1ccc(/C(C)=C(\c2ccc(OCCN3CCCCCC3)cc2)c2ccc(OC(=O)C3CCCCC3)cc2)cc1 | Not met
O=C(/C=C/c1ccc(Cl)s1)c1ccc(Cl)s1 | Met
Clc1cccc(Nc2ncnc3ccc(-c4cncc(-n5cnnn5)c4)cc23)c1 | Met
